Biological target: T1, rat plasma Kallikrein (rat, UniProt P14272 391-638, limits assumed)
T1 construct: domain: catalytic domain; also called rPK; rat PK
T1 sequence (P14272 391-638 limits assumed): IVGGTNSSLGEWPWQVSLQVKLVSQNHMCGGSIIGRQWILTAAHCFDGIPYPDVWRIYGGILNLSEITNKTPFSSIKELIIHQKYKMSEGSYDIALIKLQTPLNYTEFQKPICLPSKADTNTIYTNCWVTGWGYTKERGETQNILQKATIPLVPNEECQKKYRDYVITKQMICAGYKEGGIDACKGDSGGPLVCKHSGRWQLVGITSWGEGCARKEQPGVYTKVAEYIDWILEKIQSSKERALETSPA
Assay: enzyme inhibition
Procedure: Functional enzyme assays were conducted in 10 mM Tris HCl, 150 mM NaCl, 10 mM MgCl2, 1 mM CaCl₂) and 1 mg/mL BSA (all Sigma UK) pH7.4 at 25° C. in solid black 96 well plates. […] Release of AMC was measured using a Pherastar FS (BMG Labtech), excitation 360 nm, emission 460 nm. The rate of the linear phase of the reaction, typically 5 to 45 minutes, was calculated in MARS data analysis software (BMG labtech). The rate was then used to calculate the IC50 and Ki in Prism (GraphPad).
Numbered stars: 1 amine (or outer) side, 2 acyl side, 3 side chain; on linkers, the order of the positions; unused ones are H or OH. Bridge positions count the residues as written; N and C are the ends. Ends that are not written are not given here. TBMB = c1c(C[*:1])cc(C[*:3])cc1C[*:2]
observable: pIC50
The value called pIC50 is obtained by taking minus log10 of the concentration in mol/L.

> print(dat)
                                     binder  numeric.readout
1  ACSWPARCVHQDLCA (linker 2-8-14 via TBMB; not fully specified (N-terminus, C-terminus)) [06-34-01]             8.21
2  ACRWPARCTHQDLCA (linker 2-8-14 via TBMB; not fully specified (N-terminus, C-terminus)) [06-34-02]             8.96
3  ACSWPARCMHQDLCA (linker 2-8-14 via TBMB; not fully specified (N-terminus, C-terminus)) [06-34-17 (01 + 04)]             9.36

Now consider a different binder.
Problem: Please report the recorded pIC50 for ACSWPARCTHQDLCA (linker 2-8-14 via TBMB; not fully specified (N-terminus, C-terminus)) [06-34-03 (01 + 02)] .
Solution: 9.06
